# assayOverview: Cytotoxicity activity against human HepG2 cells assessed by CellTiter-Glo luminescent cell viability assay.
# Type: toxicity, cell-based
# Design: assay stage confirmatory assay, source tissue liver
# measurementConditions: HepG2 cells, read-out: IC50 relative
The source made the active and inactive calls. The rule behind the calls is not given here.
Form field: CC50 (one value per entry).

Reference set, count: 6
Please look up its CC50: c1ccc(CCCN2CCN(CCOC(c3ccccc3)c3ccccc3)CC2)cc1
9.1 µM (active)

Requested field: CC50. Item: O=C(NC1CCNCC1)c1n[nH]cc1NC(=O)c1c(Cl)cccc1Cl
0.2 µM (active)

Quick one: CC50 of COc1ccc2c(c1)OC(C)(C)CN(C(=O)Nc1nc(C)no1)C2 ?
11.9 µM (active)

Fill blank: measured CC50 of the compound CN(C)S(=O)(=O)c1ccc2oc(SCCOc3ccccc3)nc2c1 is ____.
10 µM (active)

Please give the measured CC50 for this compound: COc1ccc(F)c(F)c1C(=O)c1cnc(NC2CCN(S(C)(=O)=O)CC2)nc1N
0.5 µM (active)

Which CC50 reading was recorded for the compound CC(C)CCOc1ccc(CN(CC(C)(C)N(C)C)S(C)(=O)=O)cc1 ?
12.2 µM (active)

Consider the record given below.
Form field: reported CC50 of CCc1cc2c(cc1CC)CC(NC[C@H](O)c1ccc(O)c3[nH]c(=O)ccc13)C2
9.1 µM (active)

* * *

In this section we review reported CC50 values for a set of molecules.
# assayOverview: Cytotoxicity activity against human HepG2 cells assessed by CellTiter-Glo luminescent cell viability assay.
# Assay type: toxicity, cell-based
# Parameters: assay stage confirmatory assay, source tissue liver
# measurementConditions: HepG2 cells, read-out: IC50 relative
Activity calls are given as the source filed them. How the calls were made is not given here.

The cases that follow already have their CC50 on record.
# input molecule: O=C(NCCCNc1nc(Nc2cccc(NC(=O)N3CCCC3)c2)ncc1I)c1cccs1 ; wanted: its CC50
5.2 µM (active)

Name the recorded CC50 for COc1ccc(NC(=O)Nc2ccc3nc(S(C)(=O)=O)sc3c2)cc1 .
17.5 µM (inactive)

More entries:
State the recorded CC50 for this entry: COc1c(Br)cc(Cl)cc1S(=O)(=O)N1CCC[C@H](N)C1
16.1 µM (inactive)

Using the record for CC(C)N(CCC(=O)c1ccc2ccccc2c1)Cc1ccccc1 , report its CC50.
12.9 µM (active)

Which CC50 reading was recorded for the molecule COc1ccc(C[C@H](NC(=O)[C@H](C)NC(=O)CN2CCOCC2)C(=O)N[C@@H](Cc2ccccc2)C(=O)[C@@]2(C)CO2)cc1 ?
0.5 µM (active)

Suppose we examine the molecule Cc1occc1C(=O)Nc1ccc(N2CCCC2)cn1 ; what CC50 value has been reported?
8.8 µM (active)

What measured CC50 goes with c1csc(Cn2cccc2CN2CCC[C@H](N3CCCC3)CC2)c1 ?
5.2 µM (active)

Look up CC50: COc1cc(OC)cc(-c2nnc(Nc3nc4c(F)cccc4s3)o2)c1
27.8 µM (inactive)

* * *

Documented CC50 across a set of compounds
# assayOverview: Cytotoxicity activity against human HepG2 cells assessed by CellTiter-Glo luminescent cell viability assay.
# Assay type: toxicity, cell-based
# Design: assay stage confirmatory assay, source tissue liver
# measurementConditions: HepG2 cells, read-out: IC50 relative
Structures can show the parent of a compound that is named as a salt. The source made the active and inactive calls. The rule behind the calls is not given here.

Worked examples, 3 compounds total:
Quick check: CC50 of CCCCCCCCc1ccc(CCC(N)(CO)CO)cc1 [FINGOLIMOD HYDROCHLORIDE] ?
1.4 µM (active)

State the recorded CC50 for this entry: CO/N=C(/C(=O)OC)c1ccccc1COc1ccccc1C
12.5 µM (active)

Please look up its CC50: Nc1ncnc2c1c(-c1cnc3[nH]ccc3c1)nn2C1CCCC1
1.6 µM (active)

# input for lookup
Give the measured CC50 of O=C(c1csc(S(=O)(=O)N2CCC(C(=O)N3CCc4ccccc43)CC2)c1)N1CCCCCC1 .
10.6 µM (inactive)

* * *

# assayOverview: Cytotoxicity activity against human HepG2 cells assessed by CellTiter-Glo luminescent cell viability assay.
# Type: toxicity, cell-based
# Parameters: assay stage confirmatory assay, source tissue liver
# measurementConditions: HepG2 cells, read-out: IC50 relative
Calls of active or inactive are those of the source. How the calls were made is not given here.
measure: CC50

Field: example entries. Status: answers known.
I have this compound here, CNC(=O)c1ccccc1Nc1cc(Nc2ccc(N3CCOCC3)cc2OC)ncc1C(F)(F)F , and I need its recorded CC50.
3700 nM (active)

Consider the compound shown here: CC(C)(C)c1ccc(C(O)CCCN2CCC(C(O)(c3ccccc3)c3ccccc3)CC2)cc1 (centres undefined) What is its recorded CC50?
3100 nM (active)

Find the recorded CC50 belonging to N#Cc1ccnc(Nc2cc(C3CCN(C4COC4)CC3)cc(N3CCC(F)(F)C3)n2)c1 and report it.
1900 nM (active)

Pending compound:
Which CC50 reading was recorded for the compound O=C(NCc1ccc(S(=O)(=O)c2cc(F)cc(F)c2)cc1)c1ccc2nccn2c1 ?
< 100 nM (active)

* * *

# assayOverview: Cytotoxicity activity against human HepG2 cells assessed by CellTiter-Glo luminescent cell viability assay.
# Type: toxicity, cell-based
# Set-up: assay stage confirmatory assay, source tissue liver
# measurementConditions: HepG2 cells, read-out: IC50 relative
Activity calls are given as the source filed them. No rule for the calls is given here.
Just give me one of these, please: YES for active, NO for inactive

What classification did CCC(C)NC(=O)N1CC(Oc2ccc(-c3noc(-c4ccncc4)n3)cc2)C1 (configuration not stated) end up with in this test?
YES

Check the results log: what was the call for Cc1cc(C(=O)Nc2nc3cccc(Cl)c3n2[C@@H]2CCCCN(C(=O)/C=C/CN(C)C)C2)ccn1 ?
YES

For this molecule, state the assay outcome: ON=C1C[C@@H](c2ccc(Cl)cc2)Oc2ccccc21
YES

Please share the test call associated with Cc1ccn(-c2ccc(NC(=O)c3ccccn3)cc2)n1 .
YES

Which outcome was assigned to CN[C@@H](C)C(=O)N[C@H](C(=O)N1CCC[C@H]1c1nc(C(=O)c2ccc(F)cc2)cs1)C1CCCCC1 in this test?
YES

Name the outcome recorded for COc1ccc(N2C(=O)/C(=C\c3ccc(O)c(Br)c3)SC2=S)cc1 in the assay.
YES

Would you mind telling me which call this test gave CN(c1ccc(-c2csc(NC(=O)CCc3ccco3)n2)cc1)S(C)(=O)=O ?
YES

Recorded test call requested for Cc1cccc(C(=O)N[C@@H]2CN(Cc3ccccc3)C[C@H]2CN(C)C)c1
YES

What is the recorded call for this molecule in the test? CN[C@H]1CCCN(S(=O)(=O)c2ccc(Cl)cc2F)C1
NO

What outcome does the record of this test show for Cc1cccc2cc(C(=O)Nc3ccc(N4CCN(C)CC4)cn3)oc12 ?
YES

***
I'd appreciate the recorded outcome for CCOc1ccccc1-n1c(C(C)N2CCN(C(=O)COc3ccc(Cl)cc3)CC2)nc2ccccc2c1=O (configuration not stated) from this test.
YES

In this assay, the call recorded for Cc1cc(F)ccc1N1CCC(NCC(O)c2cccc(O)c2)CC1 (configuration not stated) was what?
YES

* * *

Parameter CC50: see the listing below.
# assayOverview: Cytotoxicity activity against human HepG2 cells assessed by CellTiter-Glo luminescent cell viability assay.
# Assay type: toxicity, cell-based
# Design: assay stage confirmatory assay, source tissue liver
# measurementConditions: HepG2 cells, read-out: IC50 relative
Structures can show the parent of a compound that is named as a salt. Calls of active or inactive are those of the source. No rule for the calls is given here.

Some solved cases for reference:
Given the molecule CCc1ccc(S(=O)(=O)N2CCN(c3ccc(C(C)=O)cc3)CC2)cc1 , what is its reported CC50?
50 µM (inactive)

For the molecule shown here, O=C1C(=O)c2cc([N+](=O)[O-])ccc2-c2ccccc21 , give the reported CC50.
1.5 µM (active)

# query: CC50 of entry Cc1ccc(C)c(N2CCN(CCCNC(=O)CC3Oc4ccccc4NC3=O)CC2)c1 (stereo unspecified)
15.7 µM (active)

# get_value(readout='CC50', item= Clc1ccc(C2=CCNCC2)cc1Cl )
10.8 µM (active)

---
Recorded CC50 of CC(=O)[C@]1(O)Cc2c(O)c3c(c(O)c2[C@@H](O[C@H]2C[C@H](N)[C@H](O)[C@H](C)O2)C1)C(=O)c1ccccc1C3=O [IDARUBICIN HYDROCHLORIDE] , please.
0.2 µM (active)

Need CC50 of O=C(NCC(F)(F)CO)c1ccc2noc(-c3ccccc3)c2c1 , thanks.
7.2 µM (active)

* * *

# assayOverview: Cytotoxicity activity against human HepG2 cells assessed by CellTiter-Glo luminescent cell viability assay.
# Assay type: toxicity, cell-based
# Parameters: assay stage confirmatory assay, source tissue liver
# measurementConditions: HepG2 cells, read-out: IC50 relative
Calls of active or inactive are those of the source. No rule for the calls is given here.
measure: CC50

Would you kindly share the measured CC50 for Cc1cc(C)c(Nc2ccnc(Nc3ccc(C#N)cc3)n2)c(C)c1 ?
6.5 µM (active)

Data request, read-out CC50, for O=C(NOCCO)c1ccc2cncn2c1Nc1ccc(I)cc1F
< 0.1 µM (active)

More entries:
Fill blank: measured CC50 of the compound Nc1nc(N)c2c(OCC3CCN(Cc4c(Cl)cccc4Cl)CC3)cccc2n1 is ____.
4 µM (active)

Recorded CC50 of CC(=O)C1=C(c2ccc(Br)cc2)N(C(C)=O)n2c(C)nnc2S1 , please.
10.9 µM (active)

Item under review: CN(C)c1ccc(C(O)(c2ccc(N(C)C)cc2)c2ccc(N(C)C)cc2)cc1 . Reported CC50?
2 µM (active)

Any idea what CC50 was measured for O=c1oc(-c2ccccc2)cc(Cl)c1Cl ?
5.5 µM (active)

State the recorded CC50 for this entry: CC(C)CNC(=O)N1CC(Oc2ccc(-c3noc(-c4cccnc4)n3)cc2)C1
5.4 µM (active)

Bench note: what CC50 did CCc1c2c(nc3ccc(O)cc13)-c1cc3c(c(=O)n1C2)COC(=O)[C@]3(O)CC [7-ETHYL-10-HYDROXYCAMPTOTHECIN] show?
0.2 µM (active)
